- Test system: NCI-H441
- EXPERIMENT: relative viability (nuclei count vs DMSO), 5 days (fraction); higher = more cells survive
- CONDITIONS: first compound 0.08 µM
OBSERVED PROPERTY: relative viability

COMPOUND: Cc1cnc(-c2cnc(NCCNc3ccc(C#N)cn3)nc2-c2ccc(Cl)cc2Cl)[nH]1 + C[C@@H](Oc1cc(-c2cnn(C3CCNCC3)c2)cnc1N)c1c(Cl)ccc(F)c1Cl [Crizotinib] (partner 1 µM)
ASSAY TARGET: NCI-H441
OBSERVED: 0.845
//
COMPOUND: Cc1cnc(-c2cnc(NCCNc3ccc(C#N)cn3)nc2-c2ccc(Cl)cc2Cl)[nH]1 + O=C(c1cc(Cc2n[nH]c(=O)c3ccccc23)ccc1F)N1CCN(C(=O)C2CC2)CC1 [Olaparib] (partner 8 µM)
ASSAY TARGET: NCI-H441
OBSERVED: 0.568
//
COMPOUND: Cc1cnc(-c2cnc(NCCNc3ccc(C#N)cn3)nc2-c2ccc(Cl)cc2Cl)[nH]1 + Nc1nc2[nH]cc(CCc3ccc(C(=O)N[C@@H](CCC(=O)O)C(=O)O)cc3)c2c(=O)[nH]1 [Pemetrexed] (partner 0.2 µM)
ASSAY TARGET: NCI-H441
OBSERVED: 0.271
